meta.source: paper PMC7251241

- TEST_TARGET: T1, acid β-glucosidase (GCase), Velaglucerase alfa (human, UniProt P04062 40-536, mannosyl-terminated oligosaccharide chains)
- T1 sequence (looked up): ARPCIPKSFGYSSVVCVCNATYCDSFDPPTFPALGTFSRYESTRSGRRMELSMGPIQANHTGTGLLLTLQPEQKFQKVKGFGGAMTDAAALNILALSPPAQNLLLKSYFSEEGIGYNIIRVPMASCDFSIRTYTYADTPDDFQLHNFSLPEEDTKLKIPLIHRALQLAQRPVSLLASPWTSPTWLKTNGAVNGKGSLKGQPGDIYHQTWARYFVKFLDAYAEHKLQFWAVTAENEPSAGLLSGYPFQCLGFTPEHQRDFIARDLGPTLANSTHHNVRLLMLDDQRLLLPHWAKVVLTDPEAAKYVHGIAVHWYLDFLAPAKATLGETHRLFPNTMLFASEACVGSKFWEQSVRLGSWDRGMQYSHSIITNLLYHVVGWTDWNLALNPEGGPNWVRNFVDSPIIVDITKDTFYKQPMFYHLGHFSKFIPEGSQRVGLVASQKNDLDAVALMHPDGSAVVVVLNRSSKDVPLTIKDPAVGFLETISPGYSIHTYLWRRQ
- ASSAY: MST
RECORDED_METRIC: Kd (nM)
Answer with a number only, understood to be in nM.

Asked: Report Kd for saposin C (SapC) (natural protein, UniProt P07602 311-390, looked up) SDVYCEVCEFLVKEVTKLIDNNKTEKEILDAFDKMCSKLPKSLSEECQEVVDTYGSSILSILLEEVSPELVCSMLHLCSG please.
Given back: 29.4
